Tested on: QSK
Settings: concentration: 1 μM,replicates: in singlicate; n = 1;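 further: KINOMEscan kinase panel screen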
# if measured %Inh < 2%: 1 (yes)  # else: 0 (no)

Input smiles: CC(C)c1nc(-c2cccc(NS(=O)(=O)c3ccccc3)c2)c(-c2ccnc(Nc3ccc4c(c3)CN(C)CC4)n2)s1
Group label: 0 (no)
--
Input smiles: Cc1ccn2nc(-c3ccc(F)cc3)c(-c3ccncc3)c2c1.Cl
Group label: 1 (yes)
--
Input smiles: Cl.Nc1n[nH]c2cc(-c3ccccn3)ccc12
Group label: 1 (yes)
--
Input smiles: Cc1n[nH]c2cc(Nc3ccnc(Nc4cccc(CN5CCOCC5)c4)n3)ccc12
Group label: 1 (yes)
--
Input smiles: O=C(Nc1n[nH]c2cc(-c3ccco3)ccc12)C1CC1
Group label: 0 (no)
--
Input smiles: Cn1ccc2ncnc(Oc3ccc(NC(=O)Nc4cc(C(C)(C)C)on4)c(Cl)c3)c21
Group label: 1 (yes)
--
Input smiles: COc1cc2c(Nc3ccc(NC(=O)c4ccccc4)cc3)ncnc2cc1OCCCN1CCOCC1
Group label: 0 (no)
--
Input smiles: Cc1ccc(Nc2ccnc(Nc3ccc4c(c3)CS(=O)(=O)C4)n2)cc1O.Cl
Group label: 0 (no)

====

Tested on: FYN
Conditions: concentration: 1 μM,replicates: in singlicate; n = 1
Field 'label' (enum: 1 (yes) / 0 (no)). Set to 1 (yes) when %Inh is strictly under 40%; else 0 (no).

Molecule: COc1cc(Nc2nccc(N3CCC(NC(=O)c4cccc(C#N)c4)C3)n2)cc(OC)c1OC (centres unmarked)
Measured on: FYN
Group label: 1 (yes)
--
Molecule: Cc1ccc(Nc2ccnc(Nc3ccc4c(c3)CS(=O)(=O)C4)n2)cc1O.Cl
Measured on: FYN
Group label: 0 (no)
--
Molecule: Cc1ccn2nc(-c3ccc(F)cc3)c(-c3ccncc3)c2c1.Cl
Measured on: FYN
Group label: 1 (yes)
--
Molecule: O=C(Nc1cccc(C(F)(F)F)c1)c1cccc(Oc2ccc3nccn3n2)c1
Measured on: FYN
Group label: 0 (no)
--
Molecule: COc1cccc(OC)c1C(=O)Nc1cccc(-c2nn3ccccc3c2-c2ccnc(Nc3cccc(F)c3)n2)c1
Measured on: FYN
Group label: 1 (yes)
--
Molecule: COc1cccc(CNC(=O)NC2CCN(c3ccnc(Nc4cc(OC)c(OC)c(OC)c4)n3)C2)c1 (centres unmarked)
Measured on: FYN
Group label: 1 (yes)
--
Molecule: CS(=O)c1ccc(-c2coc3ccc(-c4n[nH]c(=O)o4)cc23)cc1 (centres unmarked)
Measured on: FYN
Group label: 1 (yes)
--
Molecule: CCN1CCN(CCCC(=O)Nc2n[nH]c3nc(-c4ccc(O)cc4)c(Br)cc23)CC1
Measured on: FYN
Group label: 1 (yes)
--
Molecule: C[C@@H]1CNc2c(sc3ccc4nc(-c5ccncc5)ccc4c23)C(=O)N1
Measured on: FYN
Group label: 1 (yes)
--
Molecule: COc1cccc(C2=C(Nc3cccc(Cl)c3)C(=O)NC2=O)c1
Measured on: FYN
Group label: 1 (yes)
--
Molecule: c1ccc(Oc2ccc(Nc3ccnc4ccc(-c5ccccn5)cc34)cc2)cc1
Measured on: FYN
Group label: 0 (no)
--
Molecule: C[C@@H]1CNc2c(sc3ccc4nc(-c5ccc(O)cc5)ccc4c23)C(=O)N1
Measured on: FYN
Group label: 1 (yes)
--
Molecule: CN1CCN(CCNc2nc3cc(Oc4ccc(NC(=O)Nc5cc(C(F)(F)F)ccc5F)cc4)ccc3[nH]2)CC1.Cl.Cl
Measured on: FYN
Group label: 1 (yes)
--
Molecule: CCNCC(Cc1ccccc1)NC(=O)c1cc(Br)c(-c2ccnc3[nH]ccc23)s1.Cl.Cl (centres unmarked)
Measured on: FYN
Group label: 1 (yes)
--
Molecule: Cc1n[nH]c2cc(Nc3ccnc(Nc4cccc(CN5CCOCC5)c4)n3)ccc12
Measured on: FYN
Group label: 0 (no)
--
Molecule: COc1cc2nccc(Nc3ccc(Oc4ccccc4)cc3)c2cc1OC.Cl
Measured on: FYN
Group label: 0 (no)

====

Tested on: LOK
Construct: gene STK10
Conditions: concentration: 1 μM,replicates: in singlicate; n = 1

Compound: CC(=O)c1c(-c2ccncc2)[nH]c(-c2ccncc2)c1C
Scale unit: %
%Inh: 0
--
Compound: CN(c1cccc(CNc2nc(Nc3ccc4c(c3)CC(=O)N4)ncc2C(F)(F)F)c1)S(C)(=O)=O
Scale unit: %
%Inh: 0
--
Compound: CCNCC(Cc1ccccc1)NC(=O)c1cc(Br)c(-c2ccnc3[nH]ccc23)s1.Cl.Cl (centres unmarked)
Scale unit: %
%Inh: 0
--
Compound: CCn1c(-c2nonc2N)nc2cncc(CNC3CCNCC3)c21.Cl
Scale unit: %
%Inh: 0
--
Compound: C[C@@H](Oc1cc(-n2cnc3cc(-c4ccncc4)ccc32)sc1C(N)=O)c1ccccc1Cl
Scale unit: %
%Inh: 99.8
--
Compound: C[C@@H](Oc1cc(-n2cnc3cc(-c4cnn(C)c4)ccc32)sc1C(N)=O)c1ccccc1Cl
Scale unit: %
%Inh: 99.9
--
Compound: O=C(NCC1CC1)c1ccc(-c2cc(C(=O)NC3CC3)ccc2F)cc1
Scale unit: %
%Inh: 5
--
Compound: CNC(=O)c1ccccc1Nc1nc(Nc2cccc(CS(C)(=O)=O)c2)ncc1C.O=CO
Scale unit: %
%Inh: 99.8

====

Test system: CSNK2A1
Conditions: concentration: 1 μM,replicates: in singlicate; n = 1
Field: class. Source value: %Inh. Ranges: one (below 1%), two (1% to below 30%), three (30% or more)

Compound: O=C(NCC1CC1)c1ccc(-c2cc(C(=O)NC3CC3)ccc2F)cc1
Group label: one

Compound: CCOC(=O)N1CCC(n2cnc(-c3ccc(F)cc3)c2-c2ccnc(N)n2)CC1
Group label: two

Compound: C[C@@H]1CNc2c(sc3ccc4nc(-c5ccc(O)cc5)ccc4c23)C(=O)N1
Group label: three

Compound: Cn1ccc2ncnc(Oc3ccc(NC(=O)Nc4cc(C(C)(C)C)on4)c(Cl)c3)c21
Group label: two

Compound: O=C(Nc1n[nH]c2cc(-c3ccco3)ccc12)C1CC1
Group label: three

Compound: Cn1ccc2ncnc(Oc3ccc(NC(=O)Nc4cncc(C(F)(F)F)c4)c(Cl)c3)c21
Group label: one

Compound: COc1cccc(C2=C(Nc3cccc(Cl)c3)C(=O)NC2=O)c1
Group label: two

Compound: Cc1cccc(-c2nc(Nc3ccncc3)c3sccc3n2)n1
Group label: two

Compound: C[C@@H](Oc1cc(-n2cnc3ccc(-c4ccncc4)cc32)sc1C(N)=O)c1ccccc1Cl
Group label: three

Compound: CCn1c(-c2nonc2N)nc2cncc(Br)c21
Group label: one

Compound: Cc1ccc2c(-c3ccnc(Nc4ccc(C(F)(F)F)cc4)n3)cnn2n1
Group label: two

Compound: O=C1NCCc2[nH]c(-c3ccncc3)cc21
Group label: three

Compound: CS(=O)(=O)c1cccc(CNc2nc(Nc3ccc4c(c3)[C@@H]3C[C@@H]4CNC3=O)ncc2C(F)(F)F)c1
Group label: three

Compound: COC(=O)Nc1nc2cc(Oc3ccc(NC(=O)Nc4cc(C(F)(F)F)ccc4Cl)cc3)ccc2[nH]1.Cl
Group label: one

Compound: NC(=O)Nc1sc(-c2ccc(F)cc2)cc1C(N)=O
Group label: three

Compound: Cc1nnc(-c2ccc3occ(-c4ccc(S(C)=O)cc4)c3n2)o1 (stereo not drawn)
Group label: one

====

Reported %Inh is given for each of the following molecules.
System: ZAK
Settings: concentration: 1 μM,replicates: in singlicate; n = 1
Assay metric: %Inh (%)

Input smiles: NC(=O)c1ccc(-c2cc3ncnc(SCC(=O)O)c3s2)cc1
Measured on: ZAK
Assay metric: %Inh
Scale unit: %
Assay result: 0
--
Input smiles: COc1cccc(OC)c1C(=O)Nc1cccc(-c2nn3ccccc3c2-c2ccnc(Nc3cccc(F)c3)n2)c1
Measured on: ZAK
Assay metric: %Inh
Scale unit: %
Assay result: 66
--
Input smiles: Cc1cccc2c(-c3ccncc3)c(-c3ccc(F)cc3)nn12.Cl
Measured on: ZAK
Assay metric: %Inh
Scale unit: %
Assay result: 0
--
Input smiles: Cc1ccc(CC(=O)N2CCc3cc(-c4cn(C)c5ncnc(N)c45)ccc32)cc1
Measured on: ZAK
Assay metric: %Inh
Scale unit: %
Assay result: 21

====

Test system: ACVR1
Details: concentration: 1 μM,replicates: in singlicate; n = 1
Listed molecules paired with reported %Inh
Assay metric: %Inh (%)

Input smiles: Cc1ccc(CC(=O)N2CCc3cc(-c4cn(C)c5ncnc(N)c45)ccc32)cc1
Scale unit: %
Assay result: 0

Input smiles: Cc1cccc(-c2nc(Nc3ccncc3)c3sccc3n2)n1
Scale unit: %
Assay result: 0

Input smiles: Cc1cccc2c(-c3ccncc3)c(-c3ccc(F)cc3)nn12.Cl
Scale unit: %
Assay result: 9

Input smiles: O=C(NOCC1CC1)c1cc(Br)c(F)c(F)c1Nc1ccc(I)cc1Cl
Scale unit: %
Assay result: 0

Input smiles: Nc1nccc(-c2ccc3c(N)n[nH]c3c2)n1
Scale unit: %
Assay result: 0

Input smiles: Cn1ccc2ncnc(Oc3ccc(NC(=O)Nc4ccnc(C(F)(F)F)c4)c(Cl)c3)c21
Scale unit: %
Assay result: 11

Input smiles: Cc1ccc2c(-c3ccnc(Nc4ccc(C(F)(F)F)cc4)n3)cnn2n1
Scale unit: %
Assay result: 0
